target: ghrelin receptor (Rattus norvegicus); construct: Strips of approximately 1 cm (5 mm wide) of gastric fundus were cut out along the longitudinal axis; assay: Antagonism of ghrelin on electric-field-stimulated contractions of isolated rat gastric fundus strips (headed 'In Vivo Test'); conditions: ghrelin 0.1 nM-1 μM concentration-response curves with and without antagonist, contact time 30 minutes, read-out: antagonist activity towards the ghrelin receptor, IC50
Sequence (O08725 whole entry): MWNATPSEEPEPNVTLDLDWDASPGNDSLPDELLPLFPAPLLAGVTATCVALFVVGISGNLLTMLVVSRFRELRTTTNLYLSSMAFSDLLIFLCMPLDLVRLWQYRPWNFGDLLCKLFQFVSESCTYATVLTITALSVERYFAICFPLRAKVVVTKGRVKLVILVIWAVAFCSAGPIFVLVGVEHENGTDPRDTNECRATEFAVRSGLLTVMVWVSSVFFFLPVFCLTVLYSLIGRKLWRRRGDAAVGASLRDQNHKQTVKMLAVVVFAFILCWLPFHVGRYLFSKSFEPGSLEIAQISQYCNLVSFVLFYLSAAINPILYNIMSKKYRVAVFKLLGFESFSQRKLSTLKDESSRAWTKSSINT
measuredParameter: IC50 (nM)
Give bare numbers, in nM.

>>> experimentalresult("CN1CCN(CC(=O)NC2(c3ccc(Cl)cc3)C(=O)Nc3cc(Cl)c(Cl)cc32)CC1 (single isomer, unassigned; (+))")
50

--- query ---
So, CCN1CCC(CC(=O)NC2(c3ccc(C(F)(F)F)cc3)C(=O)Nc3cc(Cl)cc(Cl)c32)CC1 (single isomer, unassigned; (+)) ? Its IC50 was 1
